meta.source: patent US20240166641A1

Protein target, amino acids: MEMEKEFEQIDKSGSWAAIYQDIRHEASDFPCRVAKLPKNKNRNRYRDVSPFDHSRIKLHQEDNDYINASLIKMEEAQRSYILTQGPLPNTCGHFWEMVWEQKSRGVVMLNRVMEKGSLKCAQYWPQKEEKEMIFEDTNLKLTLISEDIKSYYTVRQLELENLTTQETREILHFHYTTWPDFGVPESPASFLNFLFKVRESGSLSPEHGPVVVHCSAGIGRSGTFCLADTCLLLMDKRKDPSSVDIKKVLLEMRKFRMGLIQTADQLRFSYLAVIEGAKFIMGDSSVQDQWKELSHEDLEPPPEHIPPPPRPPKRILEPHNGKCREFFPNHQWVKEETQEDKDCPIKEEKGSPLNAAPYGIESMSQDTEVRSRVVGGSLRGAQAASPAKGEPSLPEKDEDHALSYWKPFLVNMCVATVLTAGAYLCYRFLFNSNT
pIC50: −log10 of the molar value.
pIC50: recorded values
EXPERIMENTAL READOUT: pIC50

INSERT INTO measurements (compound, result) VALUES
  ('CC(C)CCn1cnc2cc(O)c(N3CC(=O)NS3(=O)=O)cc2c1=O [Compound 196]', '< 5.00'),
  ('CNc1ccc2cc(O)c(N3CC(=O)NS3(=O)=O)c(F)c2n1 [Compound 153]', '≥ 6.00'),
  ('CC(C)CCN1Cc2cc(C3=CC(=O)NS3(=O)=O)c(O)cc2CC1=O [Compound 110]', '5.00 to 6.00');
